conditions: 298.15 K; 101.8 kPa; Liquid; Vibrating tube method
So basically: mass density at 900 kg/m3 or higher? That is 1 (yes). Lower than 900 kg/m3? That is 0 (no).

- compound: "C=C(C)[C@@H]1CC=C(C)C(=O)C1 [l-carvone]"
  label: "1 (yes)"
- compound: "C=C1CC[C@H]2C[C@@H]1C2(C)C [(1S,5S)-6,6-dimethyl-2-methylenebicyclo[3.1.1]heptane]"
  label: "0 (no)"
- compound: "CC1=CCC(C(C)C)=CC1 [1-methyl-4-(1-methylethyl)-1,4-cyclohexadiene]"
  label: "0 (no)"
- compound: "C=C(C)[C@H]1CC=C(C)CC1 [(R)-1-methyl-4-(1-methylethenyl)cyclohexene]"
  label: "0 (no)"
- compound: "CCO [ethanol]"
  label: "0 (no)"
- compound: "C=CC(C)(O)CCC=C(C)C (stereo not drawn) [3,7-dimethyl-1,6-octadien-3-ol]"
  label: "0 (no)"
